- PROTOCOL_NOTES: In vivo pharmacokinetic study in rats
- CONDITION_NOTES: rat, plasma, iv, 1 mg/kg i.v.
ATTRIBUTE_MEASURED: Cmax (ng/mL)
Quick note: give the figure in ng/mL, leave out the unit.

COMPOUND	Cmax, ng/mL
CC(C)(O)COc1ccc2c(Oc3ccc(Nc4nccc5[nH]cc(-c6ccc(F)cc6)c(=O)c45)cc3F)ccnc2c1 [Example 4]	10800

Let us move to another entry and its Cmax.
Quick check: Cmax of O=c1c(-c2ccc(F)cc2)c[nH]c2ccnc(Nc3ccc(Oc4ccnc5cc(OCCO)ccc45)c(F)c3)c12 [Comparative compound C, reference compound] ?
970

* * *

- PROTOCOL_NOTES: In vivo pharmacokinetic study in rats
- CONDITION_NOTES: rat, plasma, oral, 5 mg/kg i.g. vs 1 mg/kg i.v., read-out: F (absolute bioavailability)
ATTRIBUTE_MEASURED: bioavailability (%)
Provide the reading as a plain figure in %.

MOLECULE	bioavailability, %
O=c1c(-c2ccc(F)cc2)c[nH]c2ccnc(Nc3ccc(Oc4ccnc5cc(OCCO)ccc45)c(F)c3)c12 [Comparative compound C, reference compound]	16.2

Let us move to another entry and its bioavailability.
Given the molecule CC(C)(O)COc1ccc2c(Oc3ccc(Nc4nccc5[nH]cc(-c6ccc(F)cc6)c(=O)c45)cc3F)ccnc2c1 , what is its reported bioavailability?
71.8

* * *

Entries and their AUC(0-t) values follow.
- PROTOCOL_NOTES: In vivo pharmacokinetic study in rats
- CONDITION_NOTES: rat, plasma, iv, 1 mg/kg i.v.
The reply should contain only the number, in ng·h/mL.

COMPOUND	AUC(0-t) [ng·h/mL]
CC(C)(O)COc1ccc2c(Oc3ccc(Nc4nccc5[nH]cc(-c6ccc(F)cc6)c(=O)c45)cc3F)ccnc2c1	11500

Turning now to a further compound:
Entry under review: O=c1c(-c2ccc(F)cc2)c[nH]c2ccnc(Nc3ccc(Oc4ccnc5cc(OCCO)ccc45)c(F)c3)c12 [Comparative compound C, reference compound] . Reported AUC(0-t)?
2290

* * *

Listed below: IC50 values for each entry.
- TARGET_SYSTEM: c-Met (h) (Homo sapiens (Human), UniProt P08581)
- Sequence (P08581 25-1390): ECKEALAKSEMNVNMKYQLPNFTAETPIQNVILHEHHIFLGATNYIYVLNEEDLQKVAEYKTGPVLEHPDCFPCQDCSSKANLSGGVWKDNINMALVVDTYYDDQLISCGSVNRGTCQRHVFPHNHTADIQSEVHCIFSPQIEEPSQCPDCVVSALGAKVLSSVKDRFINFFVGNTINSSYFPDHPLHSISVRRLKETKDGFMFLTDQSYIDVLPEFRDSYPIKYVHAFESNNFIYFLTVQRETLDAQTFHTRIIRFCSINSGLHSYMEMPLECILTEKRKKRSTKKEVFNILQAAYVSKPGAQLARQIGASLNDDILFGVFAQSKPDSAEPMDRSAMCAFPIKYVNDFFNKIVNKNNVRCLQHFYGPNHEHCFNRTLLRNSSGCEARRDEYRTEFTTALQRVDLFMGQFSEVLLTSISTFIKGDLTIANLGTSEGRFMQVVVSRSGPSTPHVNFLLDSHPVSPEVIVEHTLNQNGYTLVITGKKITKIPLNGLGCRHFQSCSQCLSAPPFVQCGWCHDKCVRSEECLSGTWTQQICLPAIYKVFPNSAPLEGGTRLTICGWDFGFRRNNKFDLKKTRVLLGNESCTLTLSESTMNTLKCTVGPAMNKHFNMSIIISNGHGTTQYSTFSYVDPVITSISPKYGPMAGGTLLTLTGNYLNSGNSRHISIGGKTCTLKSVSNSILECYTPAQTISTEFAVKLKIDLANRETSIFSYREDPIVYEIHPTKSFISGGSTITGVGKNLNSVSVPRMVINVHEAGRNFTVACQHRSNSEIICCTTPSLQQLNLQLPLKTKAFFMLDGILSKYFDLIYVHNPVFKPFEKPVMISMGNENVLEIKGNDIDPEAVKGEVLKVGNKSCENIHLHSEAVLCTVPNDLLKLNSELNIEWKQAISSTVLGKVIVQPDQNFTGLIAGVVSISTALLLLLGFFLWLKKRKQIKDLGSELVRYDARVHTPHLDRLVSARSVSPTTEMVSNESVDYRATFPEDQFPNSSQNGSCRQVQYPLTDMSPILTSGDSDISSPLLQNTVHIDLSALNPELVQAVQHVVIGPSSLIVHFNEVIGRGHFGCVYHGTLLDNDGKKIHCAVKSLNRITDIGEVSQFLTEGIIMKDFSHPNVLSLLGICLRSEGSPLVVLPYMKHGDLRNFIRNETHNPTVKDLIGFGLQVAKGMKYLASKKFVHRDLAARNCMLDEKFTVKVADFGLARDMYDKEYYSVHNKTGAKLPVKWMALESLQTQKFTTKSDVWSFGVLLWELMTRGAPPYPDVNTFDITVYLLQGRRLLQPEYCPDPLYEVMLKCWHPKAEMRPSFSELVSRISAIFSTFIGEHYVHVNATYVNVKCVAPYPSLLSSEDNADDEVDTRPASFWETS
- PROTOCOL_NOTES: HTRF KinEASE TK kinase inhibition assay, c-Met
- Format: biochemical
Answer in nM, number only, no unit symbol.

COMPOUND	TARGET_SYSTEM	RESULT_NUMBER
CCn1cc(-c2ccc(F)cc2)c(=O)c2c(Nc3ccc(Oc4ccnc5cc(OCC(C)(C)O)ccc45)c(F)c3)nccc21 [Example 11]	c-Met (h) (Homo sapiens (Human), UniProt P08581)	9.5
Cn1cc(-c2ccc(F)cc2)c(=O)c2c(Nc3ccc(Oc4ccnc5cc(OCC(C)(C)O)ccc45)c(F)c3)nccc21 [Example 10]	c-Met (h) (Homo sapiens (Human), UniProt P08581)	12.7
CC(C)(O)COc1ccc2c(Oc3ccc(Nc4nccc5[nH]cc(-c6ccccc6)c(=O)c45)cc3F)ccnc2c1 [Example 7]	c-Met (h) (Homo sapiens (Human), UniProt P08581)	7.4

Which measured IC50 value corresponds to COc1cc2c(Oc3ccc(Nc4nccc5[nH]cc(-c6ccccc6)c(=O)c45)cc3F)ccnc2cc1OCC(C)(C)O [Example 3] ?
20.1
